- Test system: Influenza A virus
- assay.comment: Cytotoxicity against A/WSN/33 strain (an H1N1 subtype) influenza virus in the plaque reduction assay
- Format: functional
// reported CC50 for each item listed

Q: // CC50 lookup, key: `C[C@@H]1CCC[C@@H]2C[C@@H](NC(=O)c3cc(Cl)ccc3O)CCN21`
Result: > 100 µg/mL

From here, focus on the item given below.
Q: // CC50 lookup, key: `C[C@@H]1CCC[C@@H]2C[C@@H](NC(=O)c3cc(I)ccc3O)CCN21`
Result: 100 µg/mL

----------
- Test system: Influenza A virus
- assay.comment: Cytotoxicity against A/WSN/33 strain (an H1N1 subtype) influenza virus in the plaque reduction assay
- Type: functional
// reported CC50 for each item listed

For orientation, consider the following solved cases.
Q: // CC50 lookup, key: `Cc1cccc(C(=O)N[C@H]2CCN3[C@H](CCC[C@H]3C)C2)c1O`
Result: > 100 µg/mL

Q: // CC50 lookup, key: `C[C@@H]1CCC[C@@H]2C[C@@H](NC(=O)c3cc(O)ccc3O)CCN21`
Result: 50 µg/mL

Further cases:
Q: // CC50 lookup, key: `C[C@@H]1CCC[C@@H]2C[C@@H](NC(=O)c3ccc(N)cc3O)CCN21`
Result: > 100 µg/mL
